Quantity name: melting point

Could I get melting point for every one of these entries?
1. CC(=O)OC(Cn1cncn1)(c1ccc(F)cc1F)C1(S(=O)(=O)Cl)CC1 (racemic)
2. COCCN1CCN(CCc2ccc(Nc3ncc4c(n3)-c3ccccc3C(c3ccc(Cl)c(Cl)c3)C4)cc2)CC1 (stereo unspecified)
3. CN(C)C1CCc2c(c3ccccc3n2CCC(=O)O)C1 (stereo unspecified)
4. CC(C)N1C(=O)C2CC(c3ccc(N)cc3)(C2)C1=O

Outgoing:
1: 163 to 165 °C; 2: 121 to 122 °C; 3: 106 to 108 °C; 4: 191 to 201 °C

Record melting point for all entries; do not skip any.
1. CC(C)c1n[nH]c(=O)n1N
2. O=C(NO)c1ccc2c(c1)CN(C(=O)c1ccc(-c3ccccc3)cc1)C2
3. COc1cc2c(cc1-c1cc(-c3ccc(C#N)cc3)on1)C(C)(C)CCC2(C)C
4. COc1cccc(-c2nn(Cc3ccccc3)c(N)c2C#N)c1
5. CC(C)(C)NS(=O)(=O)c1cnc(-c2cn(-c3nc(-c4ccc(Cl)cc4)cc(C(F)(F)F)n3)cn2)s1
6. CCCCCc1c(CO)nc(C(C)C)c(CO)c1-c1ccc(F)cc1
7. CC(C)[C@@H]1COC(=O)N1C(=O)[C@@H](CC(=O)OC(C)(C)C)Cc1ccccc1
8. Cc1c(OCc2ccccc2)c(=O)ccn1CCO

Outgoing:
1. 172 °C
2. 160 to 190 °C
3. 202 to 203 °C
4. 147 to 149 °C
5. 261 °C
6. 135 to 136 °C
7. 167 to 168 °C
8. 192 to 193 °C

List reported melting point for each of these compounds:
1. O=C(O)CC[C@@H](CSc1ccc(Cc2ccccc2)cc1)NC(=O)CCCCCCc1ccccc1
2. CCN(CC)CCCC1CCCCN1C(=O)N1c2ccccc2C(=O)Nc2cccnc21 (stereo unspecified)
3. CC(=O)c1ccc2occ(C#N)c(=O)c2c1
4. COc1cc(N)c(Cl)cc1C(=O)NC1CCN(CCCC2(C)NC(=O)NC2=O)CC1OC (stereo unspecified)
5. COc1cc(OC)c([N+](=O)[O-])c(OC)c1N
6. CCCCC1=NOC(Cc2ccccc2)C(=O)N1 (stereo unspecified)

Outgoing:
1: 89 to 91.5 °C; 2: 125 to 128 °C; 3: 170 to 172 °C; 4: 236 °C; 5: 111 °C; 6: 82 to 85 °C

----------
Field: melting point. Provide a value for each of the compounds that follow.

Before answering, review these 5 worked examples.
CC(=O)c1ccc(OC2CCOCC2)cc1O | 99 to 104 °C
CNc1ccc(-c2nc(C)c(-c3cccnc3)[nH]2)c(OC)c1 | 54 to 56 °C
COc1ccc(C=CC(=O)c2ccc(OC)c(CC=C(C)C)c2O)cc1 | 97 to 97.5 °C
C[C@H](CO)CN1CCC(c2noc3cc(F)ccc23)CC1 | 119 to 121 °C
Cc1ccc(OP(Oc2ccc(C)cc2C(C)(C)C)Oc2ccc(C)cc2C(C)(C)C)c(C(C)(C)C)c1 | 114 to 115 °C

Below are some compounds; for each one, tell me its melting point.
1. CC(C)OC(=O)C(C(=O)Nc1ccc(C(F)(F)F)cc1)=C1SCS1
2. CCOC(=O)C(C)Oc1ccc(N(C)c2cnc3cc(Cl)c(Cl)cc3n2)cc1 (stereo unspecified)
3. FC(F)(F)c1ccccc1P(=S)(S)c1ccccc1C(F)(F)F
4. Cc1cccc2[nH]c(=O)n(CCCN3CC=C(c4cccc(Cl)c4)CC3)c(=O)c12
5. Cc1nc(NC(CO)C(C)C)c2c(n1)c(C)nn2C (stereo unspecified)

Outgoing:
1: 151 to 152 °C; 2: 79 °C; 3: 93 to 94 °C; 4: 180 to 183 °C; 5: 166 to 168 °C

Provide the reported melting point of each entry below, same order.
1. Cc1cccc(NC(=O)NCC(=O)N(c2ccccc2)C(C(=O)OC(C)(C)C)C(=O)OC(C)(C)C)c1
2. CC(=O)c1cccc(NC(=O)c2ccc3oc(COCc4ccccc4)cc3c2)c1O
3. CNCCNCc1ccc(-c2cc3ncnc(Nc4ccc5[nH]ccc5c4)c3s2)cc1
4. COC(=O)c1c(OC(=O)N(c2ccccc2)c2ccccc2)cc(C(F)(F)F)nc1C(F)(F)F
5. CC1(N)CCN(c2c(F)c(F)c3c(=O)c(C(=O)O)cn(C4CC4)c3c2F)C1 (stereo unspecified)
6. CCn1cc(Br)ccc1=NC=C(S(=O)(=O)c1ccccc1)S(=O)(=O)c1ccccc1
7. CCOC(=O)c1c(Cn2cncn2)nc2sc3c(c2c1-c1cccc(OC)c1OC)CCCN3C(=O)OCc1ccccc1
8. COC(=O)C(c1ccccc1)N1CCC(c2ccc(NC(=O)c3ccccc3-c3ccc(C(F)(F)F)cc3)cc2)CC1 (stereo unspecified)

Outgoing:
["175 °C", "92 to 94 °C", "93 to 105 °C", "114 to 116 °C", "280 to 282 °C", "233 to 235 °C", "184 to 185 °C", "138 °C"]
